measurement.label: melting point

# molecule, value.reported
data = [
    ("COc1c(Nc2ncc(Cl)c(Nc3ccccc3S(=O)(=O)N3CCC(O)C3)n2)ccc2c1CCCC(NCCO)C2 (centres undefined)", "90 to 92 °C"),
    ("Cc1nc(-c2cccc(C(=O)O)c2)sc1C(=O)O", "295 to 296 °C"),
    ("Cc1cccc(-n2nc(C)c(C)c2-c2cc3cnccc3s2)n1", "108 to 109 °C"),
    ("Cc1cc2c(cc1C)C(C(F)(F)F)(C(F)(F)F)c1cc3c(cc1O2)Oc1cc(C)c(C)cc1C3(C(F)(F)F)C(F)(F)F", "242 to 243 °C"),
]

Data request: Assign melting point to the following record: COc1ccc(C(=O)C(Cl)=NO)cc1
Data returned: 118 to 125 °C

Data request: In one line, give reported melting point of the entry CCCCN1C(=O)NC(Cc2ccc(C=O)cc2)C1=O (centres undefined) .
Data returned: 160 °C

Data request: Return melting point for the following molecule: Cc1c(-c2cncc(CO)c2)ccc2c(=O)c(C(=O)O)cn(C3CC3)c12
Data returned: 221 to 223 °C

Data request: Assign melting point to the following record: COc1ccc(-c2cccc(C(=O)NO)c2C)cc1OCCCCCc1ccccc1
Data returned: 125 to 126 °C

Data request: Kindly indicate its recorded melting point. Item: CCn1c2ccc(C(=O)CC(C)=O)cc2c2cc(C(=O)c3ccccc3C)ccc21
Data returned: 148 °C

---

Each item that follows carries a reported melting point.

# compound, melting point
data = [
    ("COc1cccc(CCN2C(=O)c3cc(Cl)c(Cl)cc3C2(O)c2ccc(F)cc2)c1 (stereo not given)", "169 °C"),
]

Data request: // fetch melting point given entry COC(=O)CCSCC(=O)c1ccc2c(c1)CC(=O)N2
Data returned: 106 to 108 °C

Data request: Give melting point for CC(=O)Nc1ccc(S(=O)(=O)Nc2cc(C)c(S(=O)(=O)C[N+](=O)[O-])c(C)c2)cc1
Data returned: 209 to 210 °C

Data request: Give recorded melting point. COc1cc(C=O)ccc1OCC(O)CN1CCC(c2noc3cc(F)ccc23)CC1 (stereo not given)
Data returned: 107 to 108 °C

Data request: Give reported melting point value for CCCNC(=NC(=Nc1ccccc1)N1CCOCC1)C(C)C
Data returned: 122 to 124 °C

Data request: Hello, please tell me recorded melting point for this one: COC(=O)C1=Cc2cc(Br)ccc2N(CC2(C)OCCO2)CC1
Data returned: 96 to 99 °C

Data request: Hello, please tell me recorded melting point for this one: CN(C(=O)CCCOc1ccc2nc3n(c(=O)c2c1)CS(=O)(=O)N3)C1CCCCC1
Data returned: > 330 °C

Data request: Provide melting point value for the following compound: CCOC(=O)c1cc(=O)cc(C)o1
Data returned: 35 to 38 °C

---

Reported melting point values are given for each entry in this list.

Data request: Give melting point for CCCc1nc(Nc2cccc(C(C)C)c2)nc(NC2CCN(S(C)(=O)=O)CC2)n1
Data returned: 80.4 to 81.8 °C

---

measurement.label: melting point

Here are 5 molecules together with their reported answers.
# molecule, melting point
measured = [
    ("NCCNc1cccc2cn[nH]c12", "166 to 168 °C"),
    ("Cc1ccc(-c2c(C=O)n(C)c(=O)c3ncccc23)cc1", "282 to 284 °C"),
    ("Cc1ccc(S(=O)(=O)NCC(CC(=O)Nc2ccccc2)c2ccc(Cl)cc2)cc1 (stereo not drawn)", "200 to 202 °C"),
    ("COc1ccc2c(c1)OC(C)(C)C(NC(=O)c1cc(F)ccc1OC)C2=O (stereo not drawn)", "143 to 144 °C"),
    ("CC(C)(C)OC(=O)N[C@@H](Cc1ccccc1)C(=O)N1CCN(C(c2ccc(F)cc2)c2ccc(F)cc2)CC1", "54 to 74 °C"),
]

Data request: Check the records and state melting point for COc1cc(Cl)c(C(=O)c2c(C)ccc(OC)c2OC(=O)Cc2ccccc2)c(Cl)c1
Data returned: 106 °C

Data request: Identify melting point associated with the molecule Cc1ccc(C(=O)NCc2cc(C(C)(C)O)cc(C(F)(F)F)c2)cc1Nc1nccc(-c2cccnc2)n1
Data returned: 253 to 258 °C

Data request: Report measured melting point; entry is CCOc1ccc2c(c1)n(C1CCCCC1)c(=O)n2S(=O)(=O)c1ccc(NC(=O)NC(C)(C)C)cc1OC
Data returned: 237 °C

Data request: Write down melting point measured for item CCCCCCc1cc2c(s1)NC(=O)CN=C2c1ccccc1OC
Data returned: 130 to 132 °C

Data request: Recall and state the measured melting point for COc1ccc(-c2ccccc2)c(NC(=N)N2CCOCC2)c1 .
Data returned: 140 to 142 °C

Data request: For the molecule COc1ccc(O)c(C2(CO)C(=O)N(Cc3ccc(C(F)(F)F)o3)c3cccc(Cl)c32)n1 (stereo not drawn) , give its reported melting point.
Data returned: 191 to 193 °C

Data request: State its melting point: CS(=O)(=O)c1cccc(NC(=O)c2cnn3c(C(F)F)cc(-c4ccc(OC(F)(F)F)cc4)nc23)c1
Data returned: 223 °C
